# Substrate: NC(=O)C1=CN([C@@H]2O[C@H](COP(=O)(O)OP(=O)(O)OC[C@H]3O[C@@H](n4cnc5c(N)ncnc54)[C@H](OP(=O)(O)O)[C@@H]3O)[C@@H](O)[C@H]2O)C=CC1
# assay explanation: Nash assay of formaldehyde, fluorescence; coupled to EcAckA
# Type: biochemical, Denitrovibrio acetiphilus
# details: formyl phosphate made in situ by 10 µM EcAckA from 500 mM ammonium formate and 5 mM ATP, 10 mM MgCl2, MOPS-KOH pH 7.0, 30 °C, varied: cofactor
assay readout: kcat/Km (M⁻¹ s⁻¹)
Report the value in M⁻¹ s⁻¹ with no unit label.

Record excerpt, results attached:
1) DaArgC (Denitrovibrio acetiphilus DSM 12809; G182V/L233I/S178V) (protein, dimer) MKVSVIGATGYTGYELVKILANHPEFEIAALVSETYADKMFSDVYPRLRSICDVVITGRDYDAVAEISDAVFLCLPHAAAQDAAAFFYEKGLKVVDFSADFRLKDKKLYEATYKVDHTYPDLLRKAVYGLPEIFEVDIKKAELVANPGCYPTSVITPLYPLLKAGLISPEGIIADSKVGVTVAGRKADIAYSFCECNEDFRPYAIFSHRHNPEINEVLKETGKETNVLFTPHIIPASKGIESTIYTKTTAGLAEISACLKDFYRERRCVRIYDNGHIPSTADVTDTNFIDIGLFVKGERLIIVSCIDNLIKGSSGMAVQNMNLMCGFDDTLGIL : 4600
2) Denitrovibrio acetiphilus N-acetyl-γ-glutamyl phosphate reductase (DaArgC), wild type (enzyme, N-acetyl-γ-glutamyl phosphate reductase (ArgC) of Denitrovibrio acetiphilus; also called WT DaArgC; Denitrovibrio acetiphilus N-acetyl-γ-glutamyl phosphate dehydrogenase; source: E. coli BL21 (DE3), purified (Ni-Sepharose HisTrap FF, Superdex 200 SEC)) MKVSVIGATGYTGYELVKILANHPEFEIAALVSETYADKMFSDVYPRLRSICDVVITGRDYDAVAEISDAVFLCLPHAAAQDAAAFFYEKGLKVVDFSADFRLKDKKLYEATYKVDHTYPDLLRKAVYGLPEIFEVDIKKAELVANPGCYPTSVITPLYPLLKAGLISPEGIIADSKSGVTGAGRKADIAYSFCECNEDFRPYAIFSHRHNPEINEVLKETGKETNVLFTPHLIPASKGIESTIYTKTTAGLAEISACLKDFYRERRCVRIYDNGHIPSTADVTDTNFIDIGLFVKGERLIIVSCIDNLIKGSSGMAVQNMNLMCGFDDTLGIL : 4100

Next item in the queue.
Ask: Write down kcat/Km measured for item DaArgC (Denitrovibrio acetiphilus DSM 12809; G182V/S178V) (protein, dimer) MKVSVIGATGYTGYELVKILANHPEFEIAALVSETYADKMFSDVYPRLRSICDVVITGRDYDAVAEISDAVFLCLPHAAAQDAAAFFYEKGLKVVDFSADFRLKDKKLYEATYKVDHTYPDLLRKAVYGLPEIFEVDIKKAELVANPGCYPTSVITPLYPLLKAGLISPEGIIADSKVGVTVAGRKADIAYSFCECNEDFRPYAIFSHRHNPEINEVLKETGKETNVLFTPHLIPASKGIESTIYTKTTAGLAEISACLKDFYRERRCVRIYDNGHIPSTADVTDTNFIDIGLFVKGERLIIVSCIDNLIKGSSGMAVQNMNLMCGFDDTLGIL
Result: 4300
